System Under Test: rh beta tryptase (Homo sapiens, UniProt Q15661)
Construct: purchased Promega
Sequence (Q15661 31-275): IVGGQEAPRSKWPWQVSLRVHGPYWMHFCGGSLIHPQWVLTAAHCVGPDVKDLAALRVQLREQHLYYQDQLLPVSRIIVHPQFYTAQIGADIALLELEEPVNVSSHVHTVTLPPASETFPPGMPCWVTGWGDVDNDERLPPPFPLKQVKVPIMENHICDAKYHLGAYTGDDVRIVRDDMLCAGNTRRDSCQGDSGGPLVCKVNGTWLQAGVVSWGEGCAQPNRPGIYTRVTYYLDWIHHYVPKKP
Assay Info: tryptase inhibition in vitro test (cleavage of N-p-tosyl-Gly-Pro-Lys-para-nitroaniline, p-nitroaniline measured at 405 nm)
Format: biochemical
Test Parameters: rh beta tryptase 0.91 U/ml, substrate 0.6 mM, Tris HCl buffer with calcium and heparin, pH 7.4, 37° C., 5 minutes incubation; read-out: Tryptase-inhibiting activity
pIC50: −log10 of the molar value. Where a name gives a salt, the structure may show the parent alone.
Quantity Measured: pIC50

Here's what some known entries look like.
>>> df
                                   molecule      measured
0  Cn1c(CCc2ccc(C(=N)N)cc2)nc2cc(N(Cc3cccc4ccccc34)C(=O)CN3CCC(Nc4cccnc4)CC3)ccc21 [Example 26, dihydrochloride]  8.52 to 9.30
1  CN(C(=O)CN1CCC(Nc2ccc(F)cc2Cl)CC1)c1ccc2c(c1)nc(CCc1ccc(CN)cc1)n2C [Example 84, Ditrifluoroacetate]  7.52 to 8.40
2  Cn1c(CCc2ccc(C(=N)N)cc2)nc2cc(N(Cc3ccc(N)cc3)C(=O)CN3CCC(Nc4ccccc4)CC3)ccc21 [Example 44, dihydrochloride]  7.52 to 8.40
3  CN(C(=O)CN1CCC(Nc2ccc(Cl)c(Cl)c2)CC1)c1ccc2c(c1)nc(CCc1ccc(C(=N)N)cc1)n2C [Example 107, dihydrochloride]  8.52 to 9.30
4  Cn1c(CCc2ccc(C(=N)N)cc2)nc2cc(N(Cc3cccc4ccccc34)C(=O)CN3CCC(N)CC3)ccc21 [Example 15, trihydrochloride]  7.52 to 8.40

Consider the additional molecule presented here.
# get_value(readout='pIC50', item= Cn1c(CCc2ccc(C(=N)N)cc2)nc2cc(N(Cc3ccccc3)C(=O)CN3CCC(Nc4ccccc4F)CC3)ccc21 [Example 59, dihydrochloride] )
8.52 to 9.30
